# credit: patent US20200239555A1

# TARGET: T1, native human ApoC3 (human, UniProt P02656 21-99)
# T1 construct: also called nhuApoC3; native huApoC3
# T1 sequence (P02656 21-99): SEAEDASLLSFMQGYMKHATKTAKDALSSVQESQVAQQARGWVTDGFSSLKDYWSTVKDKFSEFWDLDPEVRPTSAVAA
# METHOD_NOTES: SPR, ApoC3 over captured IgG1, pH 5.5
// values below are reported koff
QUANTITY_NAME: koff (s⁻¹)

{"BINDER": "mAb8 (antibody, IgG1, V domains shown, Produced as full length IgG1 (kappa) in ExpiCHO-S cells; also called humanized anti-ApoC3 antibody mAb8) VH: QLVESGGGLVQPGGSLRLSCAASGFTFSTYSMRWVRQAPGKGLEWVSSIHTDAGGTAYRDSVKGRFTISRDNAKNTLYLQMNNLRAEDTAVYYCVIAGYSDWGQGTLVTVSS VL: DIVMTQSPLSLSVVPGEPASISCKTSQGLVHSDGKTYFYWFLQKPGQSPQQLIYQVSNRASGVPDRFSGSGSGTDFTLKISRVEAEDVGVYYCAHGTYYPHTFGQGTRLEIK", "QUANTITY_NAME": "koff", "MEAS_VALUE": 0.0205}
{"BINDER": "mAb1 (antibody, IgG1, V domains shown, Produced as full length IgG1 (kappa) in ExpiCHO-S cells; also called humanized anti-ApoC3 antibody mAb1) VH: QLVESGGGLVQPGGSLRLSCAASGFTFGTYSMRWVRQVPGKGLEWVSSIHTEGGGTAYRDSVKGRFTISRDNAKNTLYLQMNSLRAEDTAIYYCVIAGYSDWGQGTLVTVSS VL: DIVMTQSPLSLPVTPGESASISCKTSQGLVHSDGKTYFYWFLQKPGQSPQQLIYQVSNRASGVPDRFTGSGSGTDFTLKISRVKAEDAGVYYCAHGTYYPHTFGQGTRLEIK", "QUANTITY_NAME": "koff", "MEAS_VALUE": 0.0257}
